# MEASURED TARGET: HLA-A*02:01 (Homo sapiens, UniProt P04439, D140Y/D185E/D98H/E176V/E277Q/G131W/G231S/I119V/I121R/I166T/I218V/L300P/L318F/N151K/N90K/P208A/P217A/Q86G/Q94H/R138H/R169H/T345S)
# ASSAY REMARKS: MHC binding assay: UV-ligand exchange with β2m ELISA (peptide exchange yield)
# CONDITION: binding to HLA-A*02:01 evaluated by peptide exchange yield (UV-ligand exchange, β2m ELISA)
PARAMETER: Peptide exchange

Some substances with recorded Peptide exchange:
SUBSTANCE: 193 (ALFHMNILL; listed as Homo sapiens) [compound 193]
Peptide exchange: +++ (≥50 = +++)
//
SUBSTANCE: 176 (VQSGLRILL; listed as Homo sapiens) [compound 176]
Peptide exchange: ++ (≥20% = ++)
//
SUBSTANCE: 223 (ALHPVQFYL; listed as Homo sapiens) [compound 223]
Peptide exchange: +++ (≥50 = +++)
//
SUBSTANCE: 271 (VLIEYNFSI; listed as Homo sapiens) [compound 271]
Peptide exchange: +++ (≥50 = +++)
//
SUBSTANCE: 260 (ALNESLVEC; listed as Homo sapiens) [compound 260]
Peptide exchange: +++ (≥50 = +++)

Looking up 95 (KLIDEDEPLFL; listed as Homo sapiens) [compound 95] , I found its Peptide exchange recorded as +++ (≥50 = +++)

Looking up 26 (VLDGKVAVV; listed as Homo sapiens) [compound 26] , I found its Peptide exchange recorded as +++ (≥50 = +++)

Looking up 128 (SILTNISEV; listed as Homo sapiens) [compound 128] , I found its Peptide exchange recorded as ++ (≥20% = ++)
